Tested on: mice
Protocol Summary: Spontaneous activity (S. Irwin scheme)
Type: in vivo
Experimental Parameters: Mus musculus, ip, read-out: Decrease of spontaneous activity ED50
For each of the compounds below, state its ED50.
Express the result in mg/kg but write the number alone.

Enter ED50 (test system mice) for Cc1ccccc1-c1nc(-c2cccc(N)c2)nn1C
30

Give ED50 for Cn1nc(-c2cccc(Cl)c2)nc1-c1ccccc1CO tested on mice.
30

Report measured ED50 on mice; entry: Cc1cccc(-c2nc(-c3ccccc3C)n(C)n2)c1
30

Name the recorded ED50 of Cc1ccccc1-c1nc(-c2cccc(Cl)c2)nn1C , assay system mice.
30

Look up and report ED50, with mice as system, for COc1cccc(-c2nc(-c3ccccc3C)n(C)n2)c1
60

Under mice, report ED50 for Cc1ccccc1-c1nc(-c2ccccc2CO)n(C)n1
50

Give mice ED50 for the following compound: Cc1ccccc1-c1nc(-c2ccccc2)nn1C
60

Provide ED50, tested on mice, for Cn1nc(-c2ccccc2Cl)nc1-c1ccccc1CO .
60

Give measured ED50 for Cn1nc(-c2cccc(F)c2)nc1-c1ccccc1CO (mice).
30

Hey, just so you know, these numbers are from patent US4119635A.
